tested on: Bacteria; test: Inhibition of bacterial VIM2 expressed in Escherichia coli DH10B assessed as potentiation of cefazolin-induced antibacterial activity by measuring cefazolin MIC at 32 ug/ml after 16 hrs by broth micro-dilution method (reference value: 512 ug/ml)
readoutKind: MIC (µg/mL)

Worked examples follow.
Exam item: Field request: MIC | item: O=C(O)CN1C(=O)/C(=C/c2ccccc2)SC1=S
Marked response: 256

Exam item: Field request: MIC | item: COc1ccc(/C=C(\S)C(=O)O)cc1
Marked response: 256

Exam item: Field request: MIC | item: O=C(O)CN1C(=O)/C(=C/c2cccc3ccccc23)SC1=S
Marked response: 512

Exam item: Field request: MIC | item: O=C(O)CN1C(=O)/C(=C/c2ccc([N+](=O)[O-])cc2[N+](=O)[O-])SC1=S
Marked response: 512

Exam item: Field request: MIC | item: O=C(O)c1ccc(N2C(=O)/C(=C/c3cccs3)SC2=S)cc1
Marked response: 512

P. O=C(O)CN1C(=O)/C(=C/c2ccccc2[N+](=O)[O-])SC1=S
Q. O=C(O)c1ccc(N2C(=O)/C(=C/c3ccccc3)SC2=S)cc1
R. O=C(O)c1ccc(N2C(=O)/C(=C/c3ccc(Cl)cc3)SC2=S)cc1
Exam item: Please rank these compounds by MIC in descending order. # the answer lists labels in the order requested
Marked response: Q, P, R

---

test system: Bacteria; experiment: Inhibition of bacterial L1 expressed in Escherichia coli DH10B assessed as potentiation of cefazolin-induced antibacterial activity by measuring cefazolin MIC at 32 ug/ml after 16 hrs by broth micro-dilution method (reference value: 32 ug/ml)
readoutKind: MIC (µg/mL)

Worked examples follow.
Exam item: Field request: MIC | item: O=C(O)CN1C(=O)/C(=C/c2ccc3ccccc3c2)SC1=S
Marked response: 8

Exam item: Field request: MIC | item: O=C(O)c1ccc(N2C(=O)/C(=C/c3cccs3)SC2=S)cc1
Marked response: 8

Exam item: Field request: MIC | item: O=C(O)c1ccc(N2C(=O)/C(=C/c3ccco3)SC2=S)cc1
Marked response: 8

1. O=C(O)c1ccc(N2C(=O)/C(=C/c3cccc4ccccc34)SC2=S)cc1
2. O=C(O)c1ccc(N2C(=O)/C(=C/c3ccccc3[N+](=O)[O-])SC2=S)cc1
Exam item: Returns the identifier with the smallest measured MIC among 1 and 2 . Please indicate the selected item by its label.
Marked response: 2
(2: 4 µg/mL, 1: 8 µg/mL)

---

test system: Bacteria; assay: Inhibition of bacterial ImiS expressed in Escherichia coli DH10B assessed as potentiation of imipenem-induced antibacterial activity by measuring imipenem MIC at 32 ug/ml after 16 hrs by broth micro-dilution method (reference value: 2 ug/ml)
readoutKind: MIC (µg/mL)

Worked examples follow.
Exam item: Lookup: MIC / Bacteria / O=C(O)c1ccc(N2C(=O)/C(=C/c3ccc(C(F)(F)F)cc3)SC2=S)cc1
Marked response: 1

Exam item: Lookup: MIC / Bacteria / COc1ccc(/C=C(\S)C(=O)O)cc1
Marked response: 2

Exam item: Lookup: MIC / Bacteria / COc1ccc(/C=C2\SC(=S)N(c3ccc(C(=O)O)cc3)C2=O)cc1
Marked response: 0.5

Exam item: Lookup: MIC / Bacteria / O=C(O)CN1C(=O)/C(=C/c2ccc(Cl)cc2)SC1=S
Marked response: 2

Exam item: Lookup: MIC / Bacteria / O=C(O)CN1C(=O)/C(=C/c2ccc(C(F)(F)F)cc2)SC1=S
Marked response: 1

Exam item: Lookup: MIC / Bacteria / O=C(O)c1ccc(N2C(=O)/C(=C/c3cccs3)SC2=S)cc1
Marked response: 1

1. O=C(O)CN1C(=O)/C(=C/c2ccc([N+](=O)[O-])cc2[N+](=O)[O-])SC1=S
2. O=C(O)CN1C(=O)/C(=C/c2ccco2)SC1=S
Exam item: MIC comparison. Which is larger, 1 or 2 ? Please indicate the selected item by its label.
Marked response: 2
(2: 2 µg/mL, 1: 1 µg/mL)

I. O=C(O)c1ccc(N2C(=O)/C(=C/c3ccc(F)cc3)SC2=S)cc1
II. O=C(O)CN1C(=O)/C(=C/c2ccc(F)cc2)SC1=S
III. O=C(O)CN1C(=O)/C(=C/c2ccc(Cl)cc2Cl)SC1=S
Exam item: Provide the items ranked by increasing MIC. # the answer lists labels in the order requested
Marked response: I, II, III
(I: 1 µg/mL, II: 2 µg/mL, III: 4 µg/mL)

---

tested on: Bacteria; test: Inhibition of bacterial NDM1 expressed in Escherichia coli DH10B assessed as potentiation of cefazolin-induced antibacterial activity by measuring cefazolin MIC at 32 ug/ml after 16 hrs by broth micro-dilution method (reference value: 8 ug/ml)
readoutKind: MIC (µg/mL)

Worked examples follow.
Exam item: Field request: MIC | item: COc1ccc(/C=C2\SC(=S)N(c3ccc(C(=O)O)cc3)C2=O)cc1
Marked response: 2

Exam item: Field request: MIC | item: O=C(O)c1ccc(N2C(=O)/C(=C/c3ccc(C(F)(F)F)cc3)SC2=S)cc1
Marked response: 4

Exam item: Field request: MIC | item: O=C(O)c1ccc(N2C(=O)/C(=C/c3cccs3)SC2=S)cc1
Marked response: 4

I. O=C(O)c1ccc(N2C(=O)/C(=C/c3ccc(Cl)cc3Cl)SC2=S)cc1
II. O=C(O)CN1C(=O)/C(=C/c2cccs2)SC1=S
III. O=C(O)c1ccc(N2C(=O)/C(=C/c3ccccc3[N+](=O)[O-])SC2=S)cc1
IV. COc1ccc(/C=C(\S)C(=O)O)cc1
Exam item: Please rank these compounds by MIC in descending order. # the answer lists labels in the order requested
Marked response: IV, II, III, I

---

test: Inhibition of bacterial NDM1 expressed in Escherichia coli BL21(DE3) using cefazolin as substrate by spectrometric method; set-up: species or system Bacteria
pIC50: −log10 of the molar value.
readoutKind: pIC50

Exam item: Field request: pIC50 | item: O=C(O)CN1C(=O)/C(=C/c2ccc(F)cc2)SC1=S
Marked response: 4.81

1. O=C(O)CN1C(=O)/C(=C/c2ccc(C(F)(F)F)cc2)SC1=S
2. O=C(O)CN1C(=O)/C(=C/c2ccco2)SC1=S
Exam item: Returns the identifier with the smallest measured pIC50 among 1 and 2 . Please indicate the selected item by its label.
Marked response: 2
(2: 4.33, 1: 4.84)

---

tested on: Bacteria; test: Inhibition of bacterial L1 expressed in Escherichia coli DH10B assessed as potentiation of cefazolin-induced antibacterial activity by measuring cefazolin MIC at 32 ug/ml after 16 hrs by broth micro-dilution method (reference value: 32 ug/ml)
readoutKind: MIC (µg/mL)

A. O=C(O)CN1C(=O)/C(=C/c2ccccc2)SC1=S
B. O=C(O)CN1C(=O)/C(=C/c2ccc([N+](=O)[O-])cc2[N+](=O)[O-])SC1=S
Exam item: Returns the identifier with the smallest measured MIC among A and B . Please indicate the selected item by its label.
Marked response: B
